Target sequence: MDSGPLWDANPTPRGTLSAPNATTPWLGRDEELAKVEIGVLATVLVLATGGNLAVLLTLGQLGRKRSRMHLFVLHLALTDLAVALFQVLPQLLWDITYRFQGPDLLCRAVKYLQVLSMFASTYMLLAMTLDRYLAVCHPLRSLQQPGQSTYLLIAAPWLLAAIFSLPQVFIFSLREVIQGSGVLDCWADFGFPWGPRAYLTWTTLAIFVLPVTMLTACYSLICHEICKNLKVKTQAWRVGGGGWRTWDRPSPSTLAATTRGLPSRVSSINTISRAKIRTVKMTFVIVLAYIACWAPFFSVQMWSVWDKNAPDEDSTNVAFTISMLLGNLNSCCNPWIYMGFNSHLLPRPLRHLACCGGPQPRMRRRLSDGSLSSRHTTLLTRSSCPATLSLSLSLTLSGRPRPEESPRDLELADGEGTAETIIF
pKi: −log10 of the molar value. Where a name gives a salt, the structure may show the parent alone.
Measured Endpoint: pKi

Completed entries (count: 4):
[[record]]
compound = "COc1ccccc1C1(OC(=O)N2CCN(C3CCN(C)CC3)CC2)C(=O)N(S(=O)(=O)c2cccs2)c2ccc(F)cc21 (centres unmarked) [Example 136]"
measured_endpoint = "pKi"
result = "> 7.30"

[[record]]
compound = "COc1ccccc1C1(N2C[C@H](O)C[C@H]2C(=O)N(C)C)C(=O)N(S(=O)(=O)c2sc(Cl)cc2Br)c2ccc(Cl)cc21 (single isomer, unassigned) [Example 32]"
measured_endpoint = "pKi"
result = "6.30 to 7.30"

[[record]]
compound = "COc1ccc(S(=O)(=O)N2C(=O)C(c3cccnc3OC)(N3C[C@H](O)C[C@H]3C(=O)N(C)C)c3cc(Cl)ccc32)c(OC)c1 (single isomer, unassigned) [Example 5]"
measured_endpoint = "pKi"
result = "> 7.30"

[[record]]
compound = "COc1ncccc1C1(OC(=O)N2CCN(C3CCN(C)CC3)CC2)C(=O)N(S(=O)(=O)c2cc(C)sc2C)c2ccc(Cl)cc21 (centres unmarked) [Example 169, diacetate]"
measured_endpoint = "pKi"
result = "6.30 to 7.30"


Now for a further compound.
Data point: COc1ccc(S(=O)(=O)N2C(=O)C(c3cccnc3OC)(N3C[C@H](O)C[C@H]3C(=O)N(C)C)c3cc(OC)ccc32)c(OC)c1 (single isomer, unassigned) [Example 230, fumarate] ; pKi = > 7.30

---

Protein target, amino acids: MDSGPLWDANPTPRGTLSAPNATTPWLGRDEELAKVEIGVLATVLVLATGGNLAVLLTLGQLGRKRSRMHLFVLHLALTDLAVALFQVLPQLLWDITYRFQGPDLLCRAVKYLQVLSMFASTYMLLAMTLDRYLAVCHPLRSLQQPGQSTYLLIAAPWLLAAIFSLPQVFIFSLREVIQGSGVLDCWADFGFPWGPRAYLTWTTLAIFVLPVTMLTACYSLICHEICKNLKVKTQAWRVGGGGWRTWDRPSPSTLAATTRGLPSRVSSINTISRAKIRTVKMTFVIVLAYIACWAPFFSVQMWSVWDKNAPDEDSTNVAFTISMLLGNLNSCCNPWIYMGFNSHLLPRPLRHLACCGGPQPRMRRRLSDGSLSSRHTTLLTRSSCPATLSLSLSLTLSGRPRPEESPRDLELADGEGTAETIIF
pKi: −log10 of the molar value. Where a name gives a salt, the structure may show the parent alone.
Measured Endpoint: pKi

Completed entries (count: 5):
[[record]]
compound = "COc1ncccc1C1(OC(=O)N2CCN(C3CCN(C)CC3)CC2)C(=O)N(S(=O)(=O)c2ccsc2)c2ccc(Cl)cc21 (centres unmarked) [Example 171, diacetate]"
measured_endpoint = "pKi"
result = "> 7.30"

[[record]]
compound = "CCOc1ccccc1C1(NC(=O)N2CCN(C3CCN(C)CC3)CC2)C(=O)N(S(=O)(=O)c2cccc3cccnc23)c2ccc(OC)cc21 (centres unmarked) [Example 83]"
measured_endpoint = "pKi"
result = "> 7.30"

[[record]]
compound = "COc1ncccc1C1(OC(=O)N2CCN(C3CCN(C)CC3)CC2)C(=O)N(S(=O)(=O)c2ccc(C)s2)c2ccc(Cl)cc21 (centres unmarked) [Example 168, diacetate]"
measured_endpoint = "pKi"
result = "> 7.30"

[[record]]
compound = "COc1ccc(S(=O)(=O)N2C(=O)C(c3nc4ccccc4s3)(N3C[C@H](O)C[C@H]3C(=O)N(C)C)c3cc(Cl)ccc32)c(OC)c1 (single isomer, unassigned) [Example 2]"
measured_endpoint = "pKi"
result = "> 7.30"

[[record]]
compound = "COc1ccc(S(=O)(=O)N2C(=O)C(OC(=O)N3CCN(C4CCN(C)CC4)CC3)(c3ccccn3)c3cc(Cl)ccc32)c(OC)c1 (centres unmarked) [Example 104, trishydrochloride]"
measured_endpoint = "pKi"
result = "> 7.30"


Consider the following items and state reported pKi for each.
1. COc1ncccc1C1(OC(=O)N2CCN(C3CCN(C)CC3)CC2)C(=O)N(S(=O)(=O)c2cn(C)c(C)n2)c2ccc(Cl)cc21 (centres unmarked) [Example 166, diacetate]
2. COc1ncccc1C1(N2C[C@H](O)C[C@H]2C(=O)N(C)C)C(=O)N(S(=O)(=O)c2cccc3cccnc23)c2ccc(Cl)cc21 (single isomer, unassigned) [Example 288]
3. COc1ncccc1C1(OC(=O)N2CCN(C3CCN(C)CC3)CC2)C(=O)N(S(=O)(=O)c2csc3ccccc23)c2ccc(Cl)cc21 (centres unmarked) [Example 170, diacetate]
4. COc1ccccc1C1(OC(=O)N2CCN(C3CCN(C)CC3)CC2)C(=O)N(S(=O)(=O)c2cccc3cccnc23)c2ccc(Cl)cc21 (centres unmarked) [Example 75, bismethanesulfonate]
5. COc1ccc(S(=O)(=O)N2C(=O)C(c3cccnc3OC)(N3CC[C@H]3C(=O)N(C)C)c3cc(Cl)ccc32)c(OC)c1 (single isomer, unassigned) [Example 255]

Response:
1: 6.30 to 7.30; 2: > 7.30; 3: 6.30 to 7.30; 4: > 7.30; 5: 6.30 to 7.30

Data point: COc1ncccc1C1(OC(=O)N2CCN(C3CCN(C)CC3)CC2)C(=O)N(S(=O)(=O)c2ccc(C(F)(F)F)cc2)c2ccc(Cl)cc21 (centres unmarked) [Example 122, diacetate] ; pKi = 6.30 to 7.30
